B1: library; a variant is named by its letters at N, in order (parent)
chain: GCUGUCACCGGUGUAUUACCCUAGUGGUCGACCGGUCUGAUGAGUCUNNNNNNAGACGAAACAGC

# Variants of: B1
# Assay name: normalized RNA/DNA level without ligand (relative to sTRSVctl = 100) (log10 (% of sTRSVctl)); ligand: hypoxanthine (xanthine aptamer); higher = less ribozyme self-cleavage, higher mRNA level
# Cond: HEK293T, reporter: mCherry (pCS4076), ligand present: no
What normalized RNA/DNA level without ligand (log10) was measured for each of the following?
Quick one: just the number, no unit, thanks!

Lookup: # lookup: normalized RNA/DNA level without ligand (log10) of UUGUUC
Found: 2.01

Lookup: Item under review: UGAAAG . Reported normalized RNA/DNA level without ligand (log10)?
Found: 1.72

Lookup: Reported normalized RNA/DNA level without ligand (log10) for UACUCU : what is it?
Found: 1.91

Lookup: Item under review: GUAUCA . Reported normalized RNA/DNA level without ligand (log10)?
Found: 1.88

Lookup: State the recorded normalized RNA/DNA level without ligand (log10) for this entry: UGGCAG
Found: 1.69

Lookup: So what's the measured normalized RNA/DNA level without ligand (log10) for this one? UGUUAG
Found: 1.69

Lookup: Which value of normalized RNA/DNA level without ligand (log10) has been reported for CGCUGC in the records?
Found: 1.95

Lookup: Which normalized RNA/DNA level without ligand (log10) reading was recorded for the variant CGAGUA ?
Found: 1.72

Lookup: Which normalized RNA/DNA level without ligand (log10) is reported for this variant? UUAACA
Found: 1.9

Lookup: Requested read-out: normalized RNA/DNA level without ligand (log10). Entry: CCAUGC
Found: 1.88

Lookup: Any idea what normalized RNA/DNA level without ligand (log10) was measured for GCGAGG ?
Found: 1.11

Lookup: Param item = AGUUUG ; retrieve measured normalized RNA/DNA level without ligand (log10).
Found: 1.55

Lookup: Quick one: normalized RNA/DNA level without ligand (log10) for CUUCAA ?
Found: 1.82

Lookup: Requested field: normalized RNA/DNA level without ligand (log10). Item: ACUAAC
Found: 1.8

Lookup: Item under review: ACUAAU . Reported normalized RNA/DNA level without ligand (log10)?
Found: 1.67

Lookup: What value of normalized RNA/DNA level without ligand (log10) has been recorded for this entry: CUGACA
Found: 1.82

Lookup: Sample GACGAC — what was its normalized RNA/DNA level without ligand (log10)?
Found: 1.67

Lookup: What measured normalized RNA/DNA level without ligand (log10) goes with GCUUGU ?
Found: 1.72

Lookup: Given UUACAC , state its recorded normalized RNA/DNA level without ligand (log10).
Found: 1.81

Lookup: Fill in the blank: the reported normalized RNA/DNA level without ligand (log10) of UUGAUC is ____.
Found: 2.02

Lookup: I'd like to know its normalized RNA/DNA level without ligand (log10). The variant in question is ACCAAA
Found: 1.8

Lookup: Record request: normalized RNA/DNA level without ligand (log10) value, item UCGUAU
Found: 1.61

Lookup: Name the recorded normalized RNA/DNA level without ligand (log10) for CGGUUG .
Found: 1.88

Lookup: # get_value(readout='normalized RNA/DNA level without ligand (log10)', item= UUGUCU )
Found: 2.02

Lookup: # input variant: CUAUGG ; wanted: its normalized RNA/DNA level without ligand (log10)
Found: 1.6

Lookup: # normalized RNA/DNA level without ligand (log10) lookup, item ACGCCA
Found: 1.81

Lookup: Report normalized RNA/DNA level without ligand (log10) for GUUUCA please.
Found: 1.99

Lookup: normalized RNA/DNA level without ligand (log10) for AGCGGG ?
Found: 1.75

Lookup: GET /values?readout=normalized RNA/DNA level without ligand (log10)&item= AAUUAG
Found: 1.52

Lookup: Request the reported normalized RNA/DNA level without ligand (log10) associated with CAUUAA
Found: 1.71

Lookup: Need normalized RNA/DNA level without ligand (log10) of AACCUG , thanks.
Found: 1.38

Lookup: Look up normalized RNA/DNA level without ligand (log10) for this variant: GAUGGG
Found: 1.3

Lookup: Quick check: normalized RNA/DNA level without ligand (log10) of AGUGCG ?
Found: 1.36

Lookup: I am curious: what normalized RNA/DNA level without ligand (log10) value has been reported for UCACAG ?
Found: 1.56

Lookup: Which normalized RNA/DNA level without ligand (log10) is listed for CUCAGG ?
Found: 1.88

Lookup: Recorded normalized RNA/DNA level without ligand (log10) of UCAGUU , please.
Found: 1.87

Lookup: Quick one: normalized RNA/DNA level without ligand (log10) of AACAAA ?
Found: 1.78

Lookup: Form field: reported normalized RNA/DNA level without ligand (log10) of ACCAUA
Found: 1.85

Lookup: Looking for the measured normalized RNA/DNA level without ligand (log10) of GGCGCU , can you help?
Found: 2.03

Lookup: # lookup: normalized RNA/DNA level without ligand (log10) of GGACGC
Found: 1.49

Lookup: Item under review: UUGACA . Reported normalized RNA/DNA level without ligand (log10)?
Found: 1.87

Lookup: I'd like to know its normalized RNA/DNA level without ligand (log10). The variant in question is ACAAAG
Found: 1.54

Lookup: Reported normalized RNA/DNA level without ligand (log10) for AACUUC : what is it?
Found: 1.96

Lookup: Bench note: what normalized RNA/DNA level without ligand (log10) did CUGUGU show?
Found: 1.9

Lookup: Could you share which normalized RNA/DNA level without ligand (log10) value was measured for ACCCCU ?
Found: 1.89

Lookup: For the variant shown here, AAGUAC , give the reported normalized RNA/DNA level without ligand (log10).
Found: 1.65
